# System: NIH3T3 (Mus musculus)
# Assay Overview: Cytotoxicity against mouse NIH/3T3 cells assessed as IC50
Experimental Readout: IC50

Smiles Text: COc1ccc(/C=C/c2nc(Cl)c3ccccc3n2)c(OC)c1
Target Or System: NIH3T3 (Mus musculus)
Experimental Readout: IC50
Observed Result: 34.1 µM
--
Smiles Text: COc1ccc(/C=C/c2nc3ccccc3c(=O)[nH]2)cc1
Target Or System: NIH3T3 (Mus musculus)
Experimental Readout: IC50
Observed Result: > 100 µM
--
Smiles Text: COc1cccc(/C=C/c2nc(Cl)c3ccccc3n2)c1
Target Or System: NIH3T3 (Mus musculus)
Experimental Readout: IC50
Observed Result: > 100 µM
--
Smiles Text: COc1ccccc1/C=C/c1nc(Cl)c2ccccc2n1
Target Or System: NIH3T3 (Mus musculus)
Experimental Readout: IC50
Observed Result: > 100 µM
--
Smiles Text: COc1ccc(/C=C/c2nc(Cl)c3ccccc3n2)cc1
Target Or System: NIH3T3 (Mus musculus)
Experimental Readout: IC50
Observed Result: > 100 µM

Ref: ChEMBL document CHEMBL1156162
